B1: Gamma-crystallin D, residues 90 to 170; numbered along this chain, P07320 (parent)
chain: IRLYEREDYRGQMIEFTEDCSCLQDRFRFNEIHSLNVLEGSWVLYELSNYRGRQYLLMPGDYRRYQDWGATNARVGSLRRV

- Variants of: B1
- Assay method text: abundance fitness (aPCA) (normalised: wild type 0, dead -1); higher = more abundant; growth selection in yeast, the domain comes from the species named
- Test context: Homo sapiens
Recorded metric: abundance fitness
# print the numeric value only

Sample records with abundance fitness:
M13H	0.001
F27W	-0.103
F16A	-0.1
L38C	-0.102
N30Y	-0.1

// query Given the variant I1L , what is its reported abundance fitness?
// result -0.1

Data origin: the Human Domainome abundance scans (Beltran et al. 2025)
